Origin of the recorded values: PubChem BioAssay (EPA / NIEHS)

# Read-out: Interleukin-8 (IL8), CXCL8 (gene 3576)
# Protocol Notes: BSK_hDFCGF_IL8: BioMAP Diversity Plus: hDFCGF Assay for Interleukin-8 (IL8) Biomarker Activity (AID 2283058)
# Measurement Parameters: primary human foreskin fibroblasts; actives raise or lower the signal
The source made the active and inactive calls. Rule for the calls: active = hit-call score of the fitted dose curve at least 0.9, where 1 is the maximum; inactive = score below 0.9.
Write down one outcome, taken from TRUE for active, FALSE for inactive

Chemical Smiles: CCCCCCCCN(C)CCCCCCCC
Classification: FALSE

Chemical Smiles: CCCCCCCCCCCC[N+](C)(C)C
Classification: TRUE

Chemical Smiles: CCOC(=O)O[C@H](C)OC(=O)c1ccc2c(c1)cc(C(=O)NC1CCN(C(C)C)CC1)n2Cc1cc(-c2ccc(Cl)s2)on1
Classification: TRUE

Chemical Smiles: O=C(O)c1ccccc1-n1cc(C(=O)O)c(=O)c2cc(Nc3c(F)cc(F)cc3Cl)c(Cl)cc21
Classification: FALSE

Chemical Smiles: CCCCCCCCCCCO
Classification: TRUE

Chemical Smiles: O=C1c2ccccc2C(=O)N1CCc1noc(-c2ccc(CN3CCCCCC3)s2)n1
Classification: FALSE

Request: For CN(C[C@@H](CC[N+]12CCC(C3CCCCC3)(CC1)CC2)c1ccc(Cl)c(Cl)c1)C(=O)c1cc(C(F)(F)F)cc(C(F)(F)F)c1 , which call appears in the assay record?
Result: TRUE

Request: Thanks! And Cc1oc2c(NC(=O)c3c(Cl)cccc3Cl)cccc2c1C(C)(C)O ?
Result: FALSE

Request: Thanks! And Cc1c2ccccc2c(C)c2c1ccc1ccccc12 ?
Result: FALSE

Request: Thanks! And CCCCCCCCOc1ccc(C(=O)c2ccccc2)c(O)c1 ?
Result: FALSE

----------
# Read-out: TIMP metallopeptidase inhibitor 1 (TIMP1), TIMP1 (gene 7076)
# Protocol Notes: BSK_hDFCGF_TIMP1: BioMAP Diversity Plus: hDFCGF Assay for TIMP metallopeptidase inhibitor 1 (TIMP1) Biomarker Activity (AID 2283062)
# Measurement Parameters: primary human foreskin fibroblasts; actives raise or lower the signal
Calls of active or inactive are those of the source. How the source made its calls: active means hit-call score of the fitted dose curve at least 0.9, where 1 is the maximum; inactive means score below 0.9.
Write down one outcome, taken from yes = active, no = inactive

Examples with answers:
Chemical Smiles: CCCCCCCCCCCO
Classification: no
//
Chemical Smiles: c1ccc2n[nH]nc2c1
Classification: no
//
Chemical Smiles: Cc1cc2c(cc1C(F)(F)F)N(C(=O)Nc1ccc(Oc3cccnc3C)nc1)CC2
Classification: no

Request: For CCOC(=O)O[C@H](C)OC(=O)c1ccc2c(c1)cc(C(=O)NC1CCN(C(C)C)CC1)n2Cc1cc(-c2ccc(Cl)s2)on1 , which call appears in the assay record?
Result: yes

Request: Thanks! And CCCCOC(=O)c1ccc(O)cc1 ?
Result: no

Request: Thanks! And Cc1ccc2oc(CN(Cc3ccccc3)C(=O)Nc3c(F)cc(F)cc3F)c(-c3ccc(Cl)cc3)c2c1 ?
Result: no

Request: Thanks! And O=C(O)Cc1cc(I)c(Oc2ccc(O)c(I)c2)c(I)c1 ?
Result: no

Request: Thanks! And O=CCCCC=O ?
Result: yes

Request: Thanks! And OCCO ?
Result: no

Request: Thanks! And CN1C(=O)CC[C@H]1c1cccnc1 ?
Result: no

Request: Thanks! And CCCCCCCCOc1ccc(C(=O)c2ccccc2)c(O)c1 ?
Result: no

Request: Thanks! And C[C@]12CC[C@@H]3c4ccc(O)cc4CC[C@H]3[C@@H]1CC[C@H]2O ?
Result: no

Request: Thanks! And O=C1O[C@H]([C@@H](O)CO)C(O)=C1O ?
Result: no

----------
# Protocol Notes: CCTE_Shafer_MEA_acute_burst_percentage_std: CCTE's Neural Acute Assay for Standard Deviation of Burst Percentage, Shafer Lab (AID 2284018);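 note: fitted in the negative direction so actives lower burst percentage SD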
Calls of active or inactive are those of the source. The calls were made as follows: active = hit-call score of the fitted dose curve at least 0.9, where 1 is the maximum; inactive = score below 0.9.
Write down one outcome, taken from t for active, f for inactive

Examples with answers:
Chemical Smiles: CN1C(=O)CC[C@H]1c1cccnc1
Classification: f
--
Chemical Smiles: CC(C)(c1cc(Br)c(O)c(Br)c1)c1cc(Br)c(O)c(Br)c1
Classification: f
--
Chemical Smiles: CN(C)c1ccc(C(=C2C=CC(=[N+](C)C)C=C2)c2ccc(N(C)C)cc2)cc1
Classification: t
--
Chemical Smiles: COc1cc(C(=O)NC2CCN(C)CC2)ccc1Nc1ncc2c(n1)N(C1CCCC1)CC(F)(F)C(=O)N2C
Classification: f
--
Chemical Smiles: Cc1cc2c(cc1C(F)(F)F)N(C(=O)Nc1ccc(Oc3cccnc3C)nc1)CC2
Classification: f
--
Chemical Smiles: c1ccc2n[nH]nc2c1
Classification: f
--
Chemical Smiles: Clc1ccccc1C(c1ccccc1)(c1ccccc1)n1ccnc1
Classification: t
--
Chemical Smiles: CC(C)(C)c1cc(/C=C2\SC(N)=NC2=O)cc(C(C)(C)C)c1O
Classification: f

Request: For CC[C@@H]1C[C@H](N(Cc2cc(C(F)(F)F)cc(C(F)(F)F)c2)C(C)=O)c2cc(C(F)(F)F)ccc2N1C(=O)OC(C)C , which call appears in the assay record?
Result: f

Request: Thanks! And C[C@]12CC[C@@H]3c4ccc(O)cc4CC[C@H]3[C@@H]1CC[C@H]2O ?
Result: f

----------
# Read-out: BCL2L11 (gene 10018)
# Protocol Notes: LTEA_HepaRG_BCL2L11: Life Technologies and Expression Analysis (LTEA) Assay for Bcl-2 (BCL2L11) gene using HepaRG (AID 2283473)
# Measurement Parameters: mRNA level, 48 h; actives raise or lower the signal
The source made the active and inactive calls. Rule for the calls: active = hit-call score of the fitted dose curve at least 0.9, where 1 is the maximum; inactive = score below 0.9.
Write down one outcome, taken from Y for active, N for inactive

Chemical Smiles: NCc1cccc(C2CCN(C(=O)c3ccc(C#Cc4ccccc4F)o3)CC2)c1
Classification: Y
//
Chemical Smiles: O=CCCCC=O
Classification: N
//
Chemical Smiles: CC(C)(C)c1cc(/C=C2\SC(N)=NC2=O)cc(C(C)(C)C)c1O
Classification: Y
//
Chemical Smiles: CCCCCCCCN(C)CCCCCCCC
Classification: N

Request: For O=C(OCCCCCCOC(=O)c1ccccc1)c1ccccc1 , which call appears in the assay record?
Result: N

Request: Thanks! And Cc1c2ccccc2c(C)c2c1ccc1ccccc12 ?
Result: Y

Request: Thanks! And CN(C)c1ccc(C(=C2C=CC(=[N+](C)C)C=C2)c2ccc(N(C)C)cc2)cc1 ?
Result: Y

----------
# Read-out: Monocyte Chemoattractant Protein-1 (MCP1), CCL2 (gene 6347)
# Protocol Notes: BSK_SAg_MCP1: BioMAP Diversity Plus: SAg Assay for Monocyte Chemoattractant Protein-1 (MCP1) Biomarker Activity (AID 2283090)
# Measurement Parameters: primary human HUVEC with PBMC; actives raise or lower the signal
Activity calls are given as the source filed them. How the source made its calls: active means hit-call score of the fitted dose curve at least 0.9, where 1 is the maximum; inactive means score below 0.9.
Write down one outcome, taken from active, inactive

Examples with answers:
Compound: OC12N=C(c3ccccc3)SC1Cc1cc(Cl)ccc12 (configuration not stated)
Classification: inactive
//
Compound: CC(O)CC(C)(C)O (configuration not stated)
Classification: inactive
//
Compound: O=C(O)Cc1cc(I)c(Oc2ccc(O)c(I)c2)c(I)c1
Classification: inactive
//
Compound: CCCCOC(=O)CC(CC(=O)OCCCC)(OC(C)=O)C(=O)OCCCC
Classification: inactive
//
Compound: NC(=O)c1nc(-c2cccc(-c3cc(F)ccc3OCC(F)(F)C(F)(F)F)c2)n[nH]1
Classification: active

Request: For CCN(Cc1cccnc1)C(=O)c1cccc(Cl)c1[C@]1(C)C(=O)N(Cc2ccc(OC)cc2OC)c2ccc(Cl)cc21 , which call appears in the assay record?
Result: active

Request: Thanks! And CCN(Cc1cccc(S(=O)(=O)O)c1)c1ccc(C(=C2C=CC(=[N+](CC)Cc3cccc(S(=O)(=O)O)c3)C=C2)c2ccccc2S(=O)(=O)[O-])cc1 ?
Result: inactive

Request: Thanks! And CC[C@H](NC(=O)c1cc(F)ccc1NS(=O)(=O)c1cccc2cccnc12)c1ccccc1 ?
Result: active

Request: Thanks! And CC(C)(C)c1csc(-c2cc3cc(OCc4ccccc4CC(=O)O)ccc3o2)n1 ?
Result: active

----------
# Read-out: Interleukin-8 (IL8), CXCL8 (gene 3576)
# Protocol Notes: BSK_LPS_IL8: BioMAP Diversity Plus: LPS Assay for Interleukin-8 (IL8) Biomarker Activity (AID 2283078)
# Measurement Parameters: primary human HUVEC with PBMC; actives raise or lower the signal
Active and inactive are the calls of the source. How the source made its calls: active means hit-call score of the fitted dose curve at least 0.9, where 1 is the maximum; inactive means score below 0.9.
Write down one outcome, taken from active, inactive

Examples with answers:
Chemical Smiles: NCc1cccc(C2CCN(C(=O)c3ccc(C#Cc4ccccc4F)o3)CC2)c1
Classification: active

Chemical Smiles: CC1(C)NC(=O)N(c2ccc([N+](=O)[O-])c(C(F)(F)F)c2)C1=O
Classification: inactive

Chemical Smiles: OCCO
Classification: inactive

Chemical Smiles: O=C(Nc1ccc(Cl)cc1)Nc1ccc(Cl)c(Cl)c1
Classification: active

Chemical Smiles: CCCCCCCCOC(=O)c1cc(O)c(O)c(O)c1
Classification: active

Chemical Smiles: CCCCOC(=O)c1ccc(O)cc1
Classification: inactive

Chemical Smiles: O=C1O[C@H]([C@@H](O)CO)C(O)=C1O
Classification: inactive

Chemical Smiles: Cc1cc2c(cc1C(F)(F)F)N(C(=O)Nc1ccc(Oc3cccnc3C)nc1)CC2
Classification: active

Chemical Smiles: CCCCCCCCCCCC[N+](C)(C)C
Classification: active

Chemical Smiles: Cc1oc2c(NC(=O)c3c(Cl)cccc3Cl)cccc2c1C(C)(C)O
Classification: inactive

Request: For c1ccc(C[n+]2cccc3ccccc32)cc1 , which call appears in the assay record?
Result: inactive

Request: Thanks! And CCCCCCCCCCCCO ?
Result: inactive

Request: Thanks! And c1ccc2ccccc2c1 ?
Result: inactive
